System: LOC_OS02G07810-cb001;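 also: purified Escherichia coli-expressed rice kinase domain construct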
Test: thermal shift delta Tm vs DMSO control; higher = stronger stabilization (binding)
Settings: 12.5 µM; protein concentration 2 µM
Label Fulfilled when thermal shift delta Tm >= 0.5 °C; otherwise Not fulfilled.

Reported thermal shift delta Tm reaches at least 0.5 °C for CC(C)(C)c1cc(/C=C(\C#N)C(N)=S)cc(C(C)(C)C)c1O [Tyrphostin AG 879] ?
Fulfilled

Reported thermal shift delta Tm reaches at least 0.5 °C for `NC1(Cc2ccc(Cl)cc2)CCN(c2ncnc3[nH]ccc23)CC1` ?
Not fulfilled

Reported thermal shift delta Tm reaches at least 0.5 °C for `C#Cc1cccc(Nc2ncnc3cc(OCCOC)c(OCCO)cc23)c1` ?
Fulfilled

Reported thermal shift delta Tm reaches at least 0.5 °C for `C[C@@H]1COCCN1c1cc(=O)n2c(n1)N(Cc1cncc(Cl)c1)[C@H](C(F)(F)F)CC2` ?
Fulfilled

Reported thermal shift delta Tm reaches at least 0.5 °C for `O=c1cc(N2CCOCC2)oc2c1ccc1ccccc12` ?
Not fulfilled

Reported thermal shift delta Tm reaches at least 0.5 °C for CC(C)(C)c1cc(NC(=O)Nc2ccc(-c3cn4c(n3)sc3cc(OCCN5CCOCC5)ccc34)cc2)no1 [Quizartinib (AC220)] ?
Fulfilled

Reported thermal shift delta Tm reaches at least 0.5 °C for `C=CC(=O)Nc1cccc(Oc2nc(Nc3ccc(N4CCN(C)CC4)cc3)ncc2Cl)c1` ?
Fulfilled

Reported thermal shift delta Tm reaches at least 0.5 °C for `COc1ccc(-c2cc3nccn3c(Nc3ncccc3C(N)=O)n2)cc1OC` ?
Fulfilled

Reported thermal shift delta Tm reaches at least 0.5 °C for `CC(C)(C)NS(=O)(=O)c1cncc(-c2cc(F)c3nc(N)nn3c2)c1` ?
Fulfilled

Reported thermal shift delta Tm reaches at least 0.5 °C for `CCOc1cn(-c2ccc(F)cc2C)nc1C(=O)Nc1ccc(Oc2ccnc3cc(OC)c(OC)cc23)c(F)c1` ?
Fulfilled

Reported thermal shift delta Tm reaches at least 0.5 °C for C=CC(=O)Nc1cc(Nc2nccc(-c3cn(C)c4ccccc34)n2)c(OC)cc1N(C)CCN(C)C [Osimertinib (AZD9291)] ?
Not fulfilled

Reported thermal shift delta Tm reaches at least 0.5 °C for `C=CC(=O)Nc1cccc(Oc2nc(Nc3ccc(N4CCN(C)CC4)cc3)nc3ccsc23)c1` ?
Fulfilled

Reported thermal shift delta Tm reaches at least 0.5 °C for `O=c1nc(N2CCOCC2)oc2c(-c3cccc4c3sc3ccccc34)cccc12` ?
Not fulfilled

Reported thermal shift delta Tm reaches at least 0.5 °C for Cc1ccc(F)c(NC(=O)Nc2ccc(-c3cccc4[nH]nc(N)c34)cc2)c1 [Linifanib (ABT-869)] ?
Fulfilled

Reported thermal shift delta Tm reaches at least 0.5 °C for `NC(=O)Nc1cc(-c2cccc(F)c2)sc1C(=O)N[C@H]1CCCNC1` ?
Fulfilled

Reported thermal shift delta Tm reaches at least 0.5 °C for `COc1cc(OC)c(C=C2C(=O)Nc3ccccc32)c(OC)c1` ?
Not fulfilled

Reported thermal shift delta Tm reaches at least 0.5 °C for COc1cc2c(Oc3ccc4[nH]c(C)cc4c3F)ncnc2cc1OCCCN1CCCC1 [Cediranib (AZD2171)] ?
Not fulfilled

Reported thermal shift delta Tm reaches at least 0.5 °C for `CCCCNc1ncc2c(-c3ccc(CN4CCN(C)CC4)cc3)cn([C@H]3CC[C@H](O)CC3)c2n1` ?
Not fulfilled

Reported thermal shift delta Tm reaches at least 0.5 °C for `CC(C)(C#N)c1ccc(N2C(=O)OCc3cnc4ccc(-c5cnc6ccccc6c5)cc4c32)cc1` ?
Not fulfilled
